B1: library; a variant is named by its letters at N, in order (parent)
chain: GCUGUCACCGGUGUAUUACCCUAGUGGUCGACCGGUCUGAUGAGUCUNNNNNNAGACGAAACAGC

- Variants of: B1
- EXPERIMENT NOTES: normalized RNA/DNA level without ligand (relative to sTRSVctl = 100) (log10 (% of sTRSVctl)); ligand: hypoxanthine (xanthine aptamer); higher = less ribozyme self-cleavage, higher mRNA level
- RECORDED CONDITIONS: HEK293T, reporter: mCherry (pCS4076), ligand present: no
In this section we review reported normalized RNA/DNA level without ligand (log10) values for a set of variants.
Respond using a number only.

# MUTATION STRING, RECORDED NUMBER
records = [
    ("CAUUCA", 1.78),
    ("UUAAGA", 1.68),
    ("UGACCG", 1.79),
    ("AUACAA", 1.76),
    ("UUUAUA", 1.85),
]

*Q* Recorded normalized RNA/DNA level without ligand (log10) of AAACAC , please.
*A* 1.71

*Q* Would you mind doing AACUCC as well?
*A* 1.92
